Exercise: state measured Potentiation of heart-rate response to p-tyramine for each of the molecules provided.
System: heart rate response to p-tyramine
ASSAY METHOD TEXT: Cheese effect: potentiation of heart-rate response to p-tyramine in rats
EXPERIMENTAL CONTEXT: rat, dose 0.1 (iv), p-tyramine i.d.

INPUT: Find the recorded Potentiation of heart-rate response to p-tyramine belonging to NC/C(=C/F)c1ccccc1 [(E)-2-phenyl-3-fluoroallylamine, (E)-2-Phenyl-3-fluoroallylamine] and report it.
OUTPUT: 9.1 fold

INPUT: Need Potentiation of heart-rate response to p-tyramine, item C#CCN(C)CCCOc1ccc(Cl)cc1Cl [clorgyline, reference compound]
OUTPUT: 5.6 fold

INPUT: Quick check: Potentiation of heart-rate response to p-tyramine of COc1ccc(/C(=C\F)CN)cc1 ?
OUTPUT: 2.0 fold
